The measured values listed here are drawn from the supplement of paper PMC12042874.

Form field: amyloid nucleation score (one value per entry).
assay: amyloid nucleation score (Sup35N fusion, yeast selection) (log enrichment); library NNK1; higher = more nucleation; inactive = no reads after selection;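 note: zero at mode of non-aggregating sequences after 7 days selection at 30°C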
Value Type: amyloid nucleation score

>  <Substance>
GSGSDGQVGWFVANRDERRE

>  <Observed Result>
0.495

$$$$
>  <Substance>
SDGRNHTANYPWG

>  <Observed Result>
-0.182

$$$$
>  <Substance>
YCHCRFFDNLGCECLLR

>  <Observed Result>
-0.368

$$$$
>  <Substance>
DRNLDEWGEASL

>  <Observed Result>
-0.145

$$$$
>  <Substance>
YYQRGVDYNIVFLRT

>  <Observed Result>
1.16

$$$$
>  <Substance>
YVIEIMISHVPAIWRGYTCS

>  <Observed Result>
0.554

$$$$
>  <Substance>
QVTRYYGGNAVR

>  <Observed Result>
1.59

$$$$
>  <Substance>
SFRCMEYSWGDWVINPPYLS

>  <Observed Result>
0.234

$$$$
>  <Substance>
KFTFDS

>  <Observed Result>
1.52

$$$$
>  <Substance>
FRMCCNYYICHLDGVILIG

>  <Observed Result>
1.65

$$$$
>  <Substance>
YNSVLVTYYCKFSHTDSDSI

>  <Observed Result>
3.04

$$$$
>  <Substance>
YYDFGIIRSCVFSNGCVGMY

>  <Observed Result>
1.62

$$$$
>  <Substance>
MKLRVDLFSYGRCLCEQ

>  <Observed Result>
-0.021

$$$$
>  <Substance>
AIIDMDMSFRSGGCTNGVDV

>  <Observed Result>
1.06

$$$$
>  <Substance>
NYFTRFVTGDGLSFLMRVAT

>  <Observed Result>
0.487

$$$$
>  <Substance>
VYGVPWYGLSYLFCTSVDID

>  <Observed Result>
6.25

$$$$
>  <Substance>
FVTKGVERCRVPEVSLPCLI

>  <Observed Result>
-0.839

$$$$
>  <Substance>
LWDIFFRSLSVLAYNIKMFS

>  <Observed Result>
-0.552

$$$$
>  <Substance>
CFYFMECLV

>  <Observed Result>
-0.254

$$$$
>  <Substance>
NACDCQPMFVMQWYRRVEPR

>  <Observed Result>
-0.167

$$$$
>  <Substance>
YVGRNLWK

>  <Observed Result>
0.402

$$$$
>  <Substance>
AFRRRGSVPRGRASPHIFVV

>  <Observed Result>
7.95

$$$$
>  <Substance>
ASGLMLFIMPFRWGWNSVFT

>  <Observed Result>
0.683

$$$$
